Reference source: patent US10463644B2

Tested on: cancer cells
Experiment: Survival rate of cancer cells after test compound is added (flow cytometry, Annexin V-FITC/PI, clinical specimen)
Type: cell-based, patient
Test parameters: Homo sapiens, 18 h, Laryngeal cancer; 10.0 μM; read-out: Survival rate (%) All cells (Stem cells and ordinary cells)
Listing of entries alongside the reported viability at 10 µM.

| Molecule | Target | Uom | viability at 10 µM |
| --- | --- | --- | --- |
| C=C1C(=O)O[C@@H]2[C@@H]3[C@@H](CCC34CC4)C3(CC[C@@H]12)CC3 [Compound 26] | cancer cells | % | 88 |
| CN(C)C[C@@H]1C(=O)O[C@H]2[C@H]1CCC1(CC1)[C@@H]1CCC3(CC3)[C@H]21 [Compound 35] | cancer cells | % | 89 |
| CN(C)C[C@@H]1C(=O)O[C@H]2[C@H]1CCC1(CC1)[C@@H]1CCC3(CC3)[C@H]21 [Compound 27] | cancer cells | % | 92 |
| CC1=C2CC[C@@](C)(O)[C@@H]2[C@H]2OC(=O)[C@@H](CN(C)C)[C@@H]2CC1 [Compound 23] | cancer cells | % | 88 |
| C=C1C(=O)O[C@H]2[C@H]1CCC(C)=C1CC[C@@](C)(OC(=O)CCCc3cn(CCCCCCO)nn3)[C@@H]12 [Compound 21] | cancer cells | % | 73 |
| C=C1C(=O)O[C@H]2[C@H]1CC[C@@](C)(OC)C1CC[C@@](C)(O)[C@@H]12 (stereo partly shown) [Compound 47] | cancer cells | % | 93 |
| [2H][C@@]1(CN(C)C)C(=O)O[C@@H]2[C@@H]3[C@@H](CCC34CC4)C3(CC[C@H]21)CC3 [Compound 46] | cancer cells | % | 87 |
